FYI, the data here is from PubChem BioAssay (NCI).

# Test system: NCI-H522 lung
# protocol_summary: NCI tumour cell line growth inhibition, 48 h
Recorded TGI by entry
readout_label: TGI

- COc1cc2c(cc1OC)C(Cc1cc(Br)c(OC)c(OC)c1)=[N+](C)CC2: > 100 µM
- Cc1cc(O)cc(-c2nn(C)cc2-c2cc(N3CCOCC3)nc(-c3cccnc3)n2)c1: 18.1 µM
- CC(=O)OCc1ncccc1C(OC(C)=O)OC(C)=O: > 100 µM

* * *

Recorded TGI by entry
# System: SK-MEL-5 melanoma
# protocol_summary: NCI tumour cell line growth inhibition, 48 h
readout_label: TGI

* CC(O)/C=C/C1OC(=O)CC1Nc1ccc(C=O)cc1 (centres undefined) | 33.5 µM
* C=C(C)C1Cc2cc(C(C)=O)ccc2O1 (centres undefined) | > 100 µM
* CCOC(=O)c1cccc(N=Nc2ncc(/C=C/C(=O)OC)[nH]2)c1 | 30.1 µM
* CN1CCC(n2cnc(-c3ccc(F)cc3)c2-c2ccnc(Nc3ccccc3)n2)CC1 | 9.43 µM
* CCC1=C(CC2NCCc3cc(OC)c(OC)cc32)CC2c3ccccc3CCN2C1 (centres undefined) | 28 µM
* COC(=O)CCC(=O)Nc1cc(C)ccc1C | > 100 µM
* CCC12CN(C(=O)OC)C3C(Br)C1CCC(=O)C32 (centres undefined) | > 100 µM
* CNC(=O)NCCCCC(NC(=O)OCc1ccccc1)C(=O)OCc1ccccc1 (centres undefined) | > 100 µM
* Cc1cc(=O)[nH]c(Sc2ccc([N+](=O)[O-])cc2[N+](=O)[O-])n1 | 31.3 µM
* CNC(=O)OCC1=C(COC(=O)NC)CN(c2ccc(OC)cc2)C1 | > 100 µM
* COc1ccccc1C(=O)Nc1ccc(Cl)c(C(=O)OC(C)C)c1 | > 54.8 µM
* CN(C)c1ccc(C2=C([O-])c3cc(-[n+]4ccccc4)ccc3C2=O)cc1 | > 100 µM
* CC(C)(C)CC(C)(C)c1cc2c(O)c(c1)Cc1cc(C(C)(C)CC(C)(C)C)cc(c1O)Cc1cc(C(C)(C)CC(C)(C)C)cc(c1O)Cc1cc(C(C)(C)CC(C)(C)C)cc(c1O)Cc1cc(C(C)(C)CC(C)(C)C)cc(c1O)Cc1cc(C(C)(C)CC(C)(C)C)cc(c1O)Cc1cc(C(C)(C)CC(C)(C)C)cc(c1O)Cc1cc(C(C)(C)CC(C)(C)C)cc(c1O)C2 | > 100 µM
* Cn1c(=O)c2[nH]c(CCS)nc2n(C)c1=O | > 100 µM
* CC(=O)Nc1ccc(S(=O)(=O)N/N=C(\C)CN2C(=O)c3ccccc3C2=O)cc1 | > 100 µM
* C/C(=N\NC(N)=S)C(CN1CCCCC1)C(C1=C(O)c2ccccc2OC1)c1ccccc1 (centres undefined) | > 100 µM
* CC1=C(c2ccccc2)CON(c2ccccc2)C1 | 47.5 µM
* CCCCCCCCCCCCCC/C(C(=O)O)=C(\C)C(=O)O | > 100 µM
* N#Cc1cc2c(=S)[nH]c(=S)[nH]c2nc1SCc1ccccc1 | 52.3 µM
* O=S(=O)(N1CCCCN(S(=O)(=O)C(F)(F)F)CCCN(S(=O)(=O)C(F)(F)F)CCCCN(S(=O)(=O)C(F)(F)F)CCCN(S(=O)(=O)C(F)(F)F)CCCCN(S(=O)(=O)C(F)(F)F)CCCN(S(=O)(=O)C(F)(F)F)CCCCN(S(=O)(=O)C(F)(F)F)CCC1)C(F)(F)F | > 31.6 µM
* NC(N)=N/N=C/c1c(-c2cccs2)nc2n1CCS2 | 29.1 µM
* CCOC(=O)CC1C(CNC(=O)NC)OC(n2cnc3c(NC(=O)Nc4ccccc4)ncnc32)C1O[Si](C)(C)C(C)(C)C (centres undefined) | > 100 µM
* COC(=O)C[C@@H]1CC=CC(=O)/C1=C(O)/C=C/c1ccccc1 | 2.79 µM
* C#C[C@@H](OC(=O)c1ccc([N+](=O)[O-])cc1)[C@@H]1C[C@H]2O[C@@H]([C@H](C/C=C/CC)OC(=O)c3ccc([N+](=O)[O-])cc3)C[C@H]2O1 | > 100 µM
* O=CCC(O)C(O)C(O)CO (centres undefined) | > 100 µM
* C=CCc1cccc(/C(O)=C/C(=O)/C=C/c2ccccc2Cl)c1O | 31.7 µM
* COc1cc2ccnc(-c3n[nH]c4cc(OC)c(OC)cc34)c2cc1OC | > 100 µM
* Cc1c2ccccc2cc2cccc[n+]12 | 92.3 µM
* O=C1CNc2cc(N3CCCCC3)ccc2N1 | > 100 µM
* CCCCCC/C=C\CCCCCCCCCc1cccc(OC)c1O | > 100 µM
* N#CC(C#N)=C(N)/C(C#N)=C/c1ccc(O)c(O)c1 | > 100 µM
* CCCC(=O)Nc1cc(/C=C/C(=O)N2CC(CCl)c3c2cc(OC(C)=O)c2[nH]cc(C)c32)n(C)c1 (centres undefined) | 5.84e-05 µM
* COc1ccc(-c2cncn2-c2ccc(-c3nc4cc(OC)c(OC)c(OC)c4s3)cc2)cc1N | 4.4 µM
* Nc1ncnc2c1N=CN(Oc1ccccc1)N2 | > 100 µM
* CSc1ccc(NC(=O)CCl)cc1 | 3.63 µM
* O=C(c1nc2ccc(Cl)cc2[nH]c1=O)C(O)c1cccc([N+](=O)[O-])c1 (centres undefined) | > 100 µM
* Nc1ccc(Cc2ccc(N)c(C(=O)O)c2)cc1C(=O)O | > 100 µM
* CCN1C(=O)N[C@H]2[C@@H]3NC(=O)c4ccc(Cl)n4[C@@H]3C[C@]21O | 0.711 µM
* CC(=O)OCc1ncccc1C(OC(C)=O)OC(C)=O | > 100 µM

* * *

# Test system: K-562 leukemia
# protocol_summary: NCI tumour cell line growth inhibition, 48 h
Recorded TGI by entry
readout_label: TGI

• O=C(O)c1ccc2[nH]c(=O)oc2c1 = > 100 µM
• CC/C(=N/O)C(C)C(=O)CCC(=O)Nc1ccc(Cl)cc1 (centres undefined) = > 100 µM
• CN(C)CCSC(=Nc1ccccc1)n1cccc1 = > 100 µM
• CS(=O)(=O)Nc1ccc(NCc2cnc3ccc4[nH]cccc4c23)cc1 = 53.7 µM
• COc1ccccc1CC1(O)OC(=O)c2ccccc21 (centres undefined) = > 100 µM
• OCC(O)C(OC1OC(CO)C(O)C(O)C1O)c1nn(-c2ccc(Cl)cc2)c2nc3cc(Cl)c(Cl)cc3nc12 (centres undefined) = > 100 µM
• CC(C)C(=O)CC(c1ccc(Br)cc1)N1N=C(C(C)C)CC1c1ccc(Br)cc1 (centres undefined) = > 100 µM
• Cc1ccc([N+](=O)[O-])cc1S(=O)(=O)Nc1ccc(C2=NN(C(=O)c3ccccc3)C(c3ccccc3O)C2)cc1 (centres undefined) = > 100 µM
• COc1ccc(C(=O)c2cc(C)c(OC)c(C)c2)c(OC)c1OC(=O)C(Cl)Cl = > 100 µM
• CSc1ccc(NC(=O)CCl)cc1 = > 10 µM
• COc1ccc(/C=C\c2cc(OC)c(OC)c(OC)c2)cc1N/C=C\C(=O)c1c[nH]c2ccccc12 = > 100 µM
• CCCC(=O)Nc1cc(/C=C/C(=O)N2CC(CCl)c3c2cc(OC(C)=O)c2[nH]cc(C)c32)n(C)c1 (centres undefined) = > 0.197 µM
• COc1ccc(OC)c(-c2nc3sc(C)cn3c2/C=C2\C(=O)N(C)c3ccccc32)c1 = 71.1 µM
• CS(=O)(=O)Nc1cccc(-c2ccc3ncnc(Nc4cncc(Cl)c4)c3c2)c1 = > 100 µM
• OC1CCSc2ccccc21 (centres undefined) = > 100 µM
• Nc1n[nH]c2cc(F)c([C@@H]3Nc4c(F)cc5[nH]ncc5c4[C@H]4C5CCC(C5)[C@@H]34)cc12 (some centres undefined) = 12.7 µM
• Cc1ccc(Nn2c(SCC(=O)Nc3nc(-c4ccccc4)cs3)nc(C)c2C)cc1 = > 100 µM
• C=C(C)C1Cc2cc(C(C)=O)ccc2O1 (centres undefined) = > 100 µM
• Clc1cccc(/C=c2\nc(-c3ccccc3)n3c2nc2ccccc23)c1 = > 100 µM
• Cc1c(-c2cc(-c3ccccc3)n[nH]c2=O)c2ccccc2n1C = > 100 µM
• C=CC(=O)OCCCS(=O)(=O)[O-].C=CC(=O)OCCCS(=O)(=O)[O-].NC1CCCCC1N.[Pt+4] = > 25 µM
• O=C(NN1CCCCC1)c1cc2cc(CCl)ccc2oc1=O = 48.1 µM
• COc1cc(-c2cn(-c3ccc(F)cc3)c(=O)[nH]2)cc(OC)c1OC = > 100 µM
• CN(CCN1C(=O)c2cccc3cccc(c23)C1=O)CCN1C(=O)c2cccc3cccc(c23)C1=O = > 100 µM
• COc1ccc(-n2nc(C(=O)NCC(=O)Nc3nc4cc(OC)ccc4s3)c3ccccc3c2=O)cc1 = > 100 µM
• CC(=O)NC(CCCCN(Cc1ccccc1)C(=O)N(C)N=O)C(=O)NCc1ccccc1 (centres undefined) = > 100 µM
• COc1cc([N+](=O)[O-])cc2c1NC(=O)C2(C)SC (centres undefined) = > 100 µM
• O=S(=O)(N1CCCCN(S(=O)(=O)C(F)(F)F)CCCN(S(=O)(=O)C(F)(F)F)CCCCN(S(=O)(=O)C(F)(F)F)CCCN(S(=O)(=O)C(F)(F)F)CCCCN(S(=O)(=O)C(F)(F)F)CCCN(S(=O)(=O)C(F)(F)F)CCCCN(S(=O)(=O)C(F)(F)F)CCC1)C(F)(F)F = > 31.6 µM
• O=c1oc2ccccc2c(O)c1Cc1ccccc1Cc1c(O)c2ccccc2oc1=O = > 100 µM
• CCOc1ccc2c(c1)[n+]([O-])c(-c1ccc([N+](=O)[O-])cc1)c(N)[n+]2[O-] = > 100 µM
• CC(=O)Nc1ccc(S(=O)(=O)N/N=C(\C)CN2C(=O)c3ccccc3C2=O)cc1 = > 100 µM
• Nc1ncc(-c2ccc3ncnc(N4CCc5cc(F)c(Cl)cc54)c3c2)cc1C(F)(F)F = > 100 µM
• Clc1ccc(C2=Cc3nc2c(-c2ccccc2)c2ccc([nH]2)c(-c2ccccc2)c2nc(c(-c4ccccc4)c4ccc([nH]4)c3-c3ccccc3)C=C2)cc1 = > 62.5 µM
• CCOC(=O)n1ccc2c(C(=O)OC)c(C(=O)OC)cc(/C(=C/C(=O)OC)C(=O)OC)c21 = > 100 µM
• O=C(O)c1ccccc1C(=O)Nc1cc2c(cc1Br)-c1ccccc1C2=O = > 100 µM
• CC12OC(C(=O)C13CCC3)C1C(=O)c3c(O)ccc(O)c3C(=O)C12 (centres undefined) = 10.3 µM
• CC(C(=O)c1ccc(O)cc1)C1(O)C(=O)Nc2c(Cl)cc(Cl)cc21 (centres undefined) = 32.6 µM
• COc1ccc(C2C(C(=O)O)=C(CO)Oc3cc4c(cc32)OCO4)c(OC)c1 (centres undefined) = > 100 µM
• NC1=CC(=O)C(=O)c2ccccc21 = > 100 µM
